These measurements were taken from paper PMC4600463.

Biological target: Keap1 (Kelch domain) (Homo sapiens)
Sequence (Q14145 321-609): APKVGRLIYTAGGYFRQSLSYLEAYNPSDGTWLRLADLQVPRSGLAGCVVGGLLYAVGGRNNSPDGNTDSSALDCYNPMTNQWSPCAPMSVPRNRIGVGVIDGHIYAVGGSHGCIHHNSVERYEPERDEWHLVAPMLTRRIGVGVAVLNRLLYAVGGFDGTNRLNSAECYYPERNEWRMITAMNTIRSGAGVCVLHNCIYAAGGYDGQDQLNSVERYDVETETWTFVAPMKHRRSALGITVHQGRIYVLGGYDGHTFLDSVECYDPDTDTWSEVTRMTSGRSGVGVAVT
Conditions: SAR discussion
reported endpoint: Activity in fluorescence anisotropy assay (in words)

O=C(O)c1cccc(S(=O)(=O)Nc2ccc(NS(=O)(=O)c3cccc(C(=O)O)c3)c3ccccc23)c1 [Compound 11d] yielded Activity in fluorescence anisotropy assay (in words) of inactive

COc1ccc(S(=O)(=O)Nc2cc(NS(=O)(=O)c3ccc(OC)cc3)c3ccccc3c2)cc1 [Compound 19] yielded Activity in fluorescence anisotropy assay (in words) of loss of activity

COc1ccc(S(=O)(=O)N(CC(=O)O)c2cccc3ccccc23)cc1 [Compound 18] yielded Activity in fluorescence anisotropy assay (in words) of inactive

O=S(=O)(Nc1ccc(NS(=O)(=O)c2cccc(C(F)(F)F)c2)c2ccccc12)c1cccc(C(F)(F)F)c1 [Compound 11f] yielded Activity in fluorescence anisotropy assay (in words) of inactive

Others:
COc1ccc(S(=O)(=O)Nc2cc3ccccc3cc2NS(=O)(=O)c2ccc(OC)cc2)cc1 [Compound 20] yielded Activity in fluorescence anisotropy assay (in words) of loss of activity

O=S(=O)(Nc1ccc(NS(=O)(=O)c2ccccc2)c2ccccc12)c1ccccc1 [Compound 11a] yielded Activity in fluorescence anisotropy assay (in words) of inactive

COc1ccc(S(=O)(=O)Nc2cccc3ccccc23)cc1 [Compound 17] yielded Activity in fluorescence anisotropy assay (in words) of inactive

COc1ccc(S(=O)(=O)N(CC(=O)O)c2cc(N(CC(=O)O)S(=O)(=O)c3ccc(OC)cc3)c3ccccc3c2)cc1 [Compound 22] yielded Activity in fluorescence anisotropy assay (in words) of loss of activity
